molecular target: Gag-Pol polyprotein [600-1028,D666N,K669R,T814F,K818Q,C879S]/[600-1151,D666N,K669R,T814F,K818Q,C879S] (Human immunodeficiency virus 1, UniProt P03366, C879S/D666N/K669R/K818Q/T814F); construct: 600-1028; 600-1151; test: Assay of RT RNH Activity
READOUT: IC50

{"columns": ["ITEM_SMILES", "READOUT", "VALUE"],
 "data": [
  ["COc1ccc2ccccc2c1/C=N/NC(=O)c1ccc(O)c(O)c1", "IC50", "500 nM"]
]}

====

target: Gag-Pol polyprotein [600-1028,V705A,Y780C,C879S]/[600-1151,V705A,Y780C,C879S] (Human immunodeficiency virus 1, UniProt P03366, C879S/V705A/Y780C); construct: 600-1028; 600-1151; experiment: Assay of RT RNH Activity
pIC50: −log10 of the molar value.

{"columns": ["ITEM_SMILES", "pIC50"],
 "data": [
  ["COc1ccc2ccccc2c1/C=N/NC(=O)c1ccc(O)c(O)c1", 6.07]
]}
